Parameter measured: GI50

(Q) Observed GI50 on ACHN renal for "O=C(Nc1cccc(-n2cc(-c3ccncc3)c(-c3ccc(O)c(Cl)c3)n2)c1)c1cccc(C(F)(F)F)c1" , please.
(A) 3.71 µM

(Q) Requested read-out GI50, target or system ACHN renal, entry "Cc1cc(Cl)ccc1Nc1nc(C(F)(F)F)ccc1C(=O)N1CCN(c2cccc(Cl)c2)CC1"
(A) > 100 µM

(Q) Record "Oc1[nH]c2cc(Cl)ccc2c1/C=c1/ccc2c(c1)N=C(c1cc(F)cc(F)c1)N=2" : what is its GI50 with ACHN renal?
(A) 4.99 µM

(Q) Provide the documented GI50 with ACHN renal as the system for "CC/C=C\C/C=C\C[C@H](O)C/C=C1/C(=O)C=C[C@@H]1C/C=C\CCCC(=O)OC"
(A) 1.72 µM

(Q) GI50 of "O=c1[nH]c2ccccc2n1-c1n[nH]c2ccccc12" on ACHN renal?
(A) 29.9 µM

(Q) # get_value(readout= GI50, system= ACHN renal) for "Cc1cc(Cl)ccc1NS(=O)(=O)c1ccc(-c2cnc(C3CC3)o2)cc1"
(A) 0.649 µM

(Q) Form entry - test system: ACHN renal; read-out: GI50; molecule: CC1COCC(C)N1C1=C(Cl)C(=O)c2ccccc2C1=O (configuration not stated)
(A) 1.66 µM
